Assay: plasma pharmacokinetics by LC-MS/MS in patients
Assay type: in vivo, human
Settings: human, plasma, oral, 300 mg, 300-mg 5:2, Cycle 1 Day 15, geometric mean; read-out: AUClast of OKI-179
VALUE TYPE: AUC(0-t)
// unit must come after the numeric part

Input line: Sample CC(C)[C@H](N)C(=O)SCC/C=C/[C@@H]1CC(=O)NCc2nc(cs2)C(=O)NC(C)(C)C(=O)N[C@@H](C(C)C)C(=O)O1 [OKI-179, Bocodepsin] — what was its AUC(0-t)?
Output line: 374 ng·h/mL
